Sourced from PubChem BioAssay (NCI)

Recorded TGI by entry
System: NCI-H226 lung
Assay Summary: NCI tumour cell line growth inhibition, 48 h

{"Molecule": "O=C1c2ccccc2-c2c1c1ccccc1c(=O)n2-c1cccnc1", "TGI": "> 100 µM"}
{"Molecule": "COc1cc(C(=O)/C=C/c2c(-c3cccs3)nc3sc(C)cn23)cc(OC)c1OC", "TGI": "54.8 µM"}
{"Molecule": "CC1=NC(C(=O)O)Cc2c1[nH]c1ccccc21 (stereo not drawn)", "TGI": "> 100 µM"}
{"Molecule": "Cc1ccc(S(=O)(=O)N/N=C(/CC(=O)c2c(C)n([O-])c3ccccc3[n+]2=O)C(=O)Nc2ccc(C)c(C)c2)cc1", "TGI": "> 100 µM"}
{"Molecule": "Cc1ccc(S(=O)(=O)O/N=C2\\CCC\\C2=C/c2ccccc2)cc1", "TGI": "37.7 µM"}
{"Molecule": "C=C(C)[C@@H]1CC[C@]2(CNCCO)CC[C@]3(C)[C@H](CC[C@@H]4[C@@]5(C)CCC(N)[C@@](C)(CO)[C@@H]5CC[C@]43C)[C@@H]12 (stereo partly drawn)", "TGI": "5.48 µM"}
{"Molecule": "CC(C(N)=O)N(C)C(=O)c1cc2ccccc2[n+](Cc2ccccc2)c1 (stereo not drawn)", "TGI": "> 100 µM"}
{"Molecule": "C=C(C)[C@@H]1CC[C@]2(COC(C)=O)CC[C@]3(C)[C@H](CC[C@@H]4[C@@]5(C)CC[C@H](OC(C)=O)C(C)(C)[C@@H]5CC[C@]43C)[C@@H]12", "TGI": "> 50 µM"}

----------
Recorded TGI by entry
System: OVCAR-5 ovarian
Assay Summary: NCI tumour cell line growth inhibition, 48 h

{"Compound": "CC(NC(=O)C(C)C(=O)Nc1ccc(C(F)(F)F)cc1)C(N)=O (stereo not drawn)", "TGI": "> 100 µM"}
{"Compound": "COc1cc(/C=N/NC(=O)c2ccc(NC(C)=O)cc2OC)ccc1O", "TGI": "> 100 µM"}
{"Compound": "COc1ccccc1N1C(=O)C2C3c4ccccc4C(OC(C)=O)(c4ccccc43)C2C1=O (stereo not drawn)", "TGI": "> 100 µM"}
{"Compound": "O=C(Cc1csc2nc(-c3ccc(Br)cc3)cn12)N/N=C/c1cc(Br)ccc1O", "TGI": "73.5 µM"}
{"Compound": "NC(CSC(=O)c1ccccc1)C(=O)O (stereo not drawn)", "TGI": "> 100 µM"}
{"Compound": "COc1cc2c3c(n(CCCN=[N+]=[N-])c(=O)c2cc1OC)-c1ccc(C#N)cc1C3=O", "TGI": "> 100 µM"}
{"Compound": "Cc1ccnc(NS(=O)(=O)c2ccc(NC3=CC(=O)C(=O)c4ccccc43)cc2)n1", "TGI": "> 100 µM"}
{"Compound": "CC12CCC(C(=O)n3c1nc1ccccc13)C(C)(C)O2 (stereo not drawn)", "TGI": "> 100 µM"}
{"Compound": "O=[N+]([O-])C(=C1NCCN1)/C(Cl)=C(/Cl)N1CCOCC1", "TGI": "> 100 µM"}
{"Compound": "CCOC(=O)c1cc(C(=O)c2ccc(Cl)cc2)n2ccc(-c3cc[n+](CC(=O)c4ccc(OC)cc4)cc3)cc12", "TGI": "3.69 µM"}
{"Compound": "O=C1/C(=C/c2cccc(O)c2)COc2ccccc21", "TGI": "26.6 µM"}
{"Compound": "CCC[CH2][Sn]([CH2]CCC)([O]C(=O)Cc1ccc(F)cc1)[O]C(=O)Cc1ccc(F)cc1", "TGI": "3.18 µM"}
{"Compound": "CCCCC1=C(Br)C(=C(Br)Br)OC1=O", "TGI": "30.3 µM"}
{"Compound": "O=c1[nH]c(=O)n(C2OC(CO)C(N(O)Cc3ccc(F)cc3)C2O)cc1Br (stereo not drawn)", "TGI": "> 100 µM"}
{"Compound": "Cc1cc2c(cc1C)N1C(Cl)=C3CCCCC3=C(C#N)C1N2 (stereo not drawn)", "TGI": "36 µM"}
{"Compound": "COc1ccc2c(CCC(c3ccccc3)c3ccccc3)c3[n+](cc2c1OC)CCc1cc2c(cc1-3)OCO2", "TGI": "5.95 µM"}
{"Compound": "CCNC(=S)NNC(=O)c1nsc2ccccc12", "TGI": "> 100 µM"}
{"Compound": "O=c1c2ccccc2nc(/C=C(\\O)c2ccccc2)n1-c1ccccc1Cl", "TGI": "> 100 µM"}
{"Compound": "CCc1c2c(nc3ccc(O)cc13)-c1cc3c(c(=O)n1C2)COC(=O)[C@]3(O)CC", "TGI": "4.56 µM"}
{"Compound": "Cc1ccc(O)c(N=Nc2c(O)cc(S(=O)(=O)O)c3ccccc23)c1", "TGI": "> 100 µM"}
{"Compound": "CNC(=O)CCC(NC(=O)OC(C)(C)C)C(=O)NC(Cc1ccc(NC(=O)CCCCC(C)=O)cc1)C(=O)NCC(=O)NC (stereo not drawn)", "TGI": "> 100 µM"}
{"Compound": "COc1ccc2c(c1)CC1Cc3cc(OC)c(OC)cc3CN1CC2 (stereo not drawn)", "TGI": "> 100 µM"}
{"Compound": "O=C1NC(=O)C(C(=O)C(=O)Nc2cccc(C(F)(F)F)c2)C(=O)N1", "TGI": "> 100 µM"}
{"Compound": "C[C@]12CCc3nonc3C1CC[C@@H]1C2CC[C@]2(C)C(=O)CCC12 (stereo partly drawn)", "TGI": "> 100 µM"}
{"Compound": "CC(C)(O)c1coc(S(=O)(=O)/N=C(\\O)Nc2c3c(cc4c2CCC4)CCC3)c1", "TGI": "> 100 µM"}
{"Compound": "O=c1c(O)c(O)c1=O.[NH2-].[NH2-].[NH2-].[NH2-].[NH2-].[Ru+5]", "TGI": "> 100 µM"}
{"Compound": "CC(C)(C)c1[nH]nc2c1C(c1cc3ccccc3[nH]c1=O)Nc1cc(C(=O)Nc3ccc(Cl)cc3)ccc1N2 (stereo not drawn)", "TGI": "39 µM"}
{"Compound": "COc1ccc(Nc2nc3cc(C(F)(F)F)ccc3nc2C(=O)O)cc1OC", "TGI": "> 100 µM"}
{"Compound": "COc1ccc(-c2[nH]c(=O)n(C3OC(CO)C(O)C(O)C3O)c(=O)c2C#N)cc1 (stereo not drawn)", "TGI": "> 100 µM"}
{"Compound": "Cc1cc2c(c(C(N)=O)c1C)-c1cccc(Cl)c1C2=O", "TGI": "> 100 µM"}
{"Compound": "CC1(C)OCC(C2CCC3(C)C4=CCC5C(C)(C)C(O)CCC5(C)C4CCC23C)CC(O)C1O (stereo not drawn)", "TGI": "36.2 µM"}
{"Compound": "Cc1c(NC(=O)c2cc(C(N)=O)nc3cc(F)ccc23)c(C(F)(F)F)nn1Cc1ccc(C#N)cc1", "TGI": "97.5 µM"}
{"Compound": "Cc1ccc(C[N+](C)(C)N)cc1C", "TGI": "> 10 µM"}

----------
System: SK-MEL-5 melanoma
Assay Summary: NCI tumour cell line growth inhibition, 48 h
Recorded TGI by entry

{"Compound": "O=C1NC(=O)C(C(=O)C(=O)Nc2cccc(C(F)(F)F)c2)C(=O)N1", "Comparison Symbol": ">", "TGI [µM]": 100}
{"Compound": "O=C1c2cccc3cc4ccccc4c(c23)C(=O)N1CCNCCNCCNCCN1C(=O)c2cccc3cc4ccccc4c(c23)C1=O", "Comparison Symbol": "=", "TGI [µM]": 0.578}
{"Compound": "O=C(CC(=O)Nc1ccccc1Cl)NNC(c1cc(N=Nc2ccc(Br)cc2)ccc1O)P(O)O (stereo not drawn)", "Comparison Symbol": "=", "TGI [µM]": 4.96}

----------
System: SW-620 colon
Assay Summary: NCI tumour cell line growth inhibition, 48 h; in the data active means GI50 below about 0.43 µM; inactive means the rest
Possible outcomes: label 1 (active), label 0 (inactive)

{"Smiles Representation": "CC(C)(O)c1coc(S(=O)(=O)/N=C(\\O)Nc2c3c(cc4c2CCC4)CCC3)c1", "Answer Label": "label 0"}
{"Smiles Representation": "CC1(C)CCC(S(=O)(=O)c2ccc3c(c2)/C(=N\\O)c2cc(S(=O)(=O)N4CCN(c5ccc(F)cc5O)CC4)ccc2-3)CC1", "Answer Label": "label 1"}
{"Smiles Representation": "CCC[CH2][Sn]([CH2]CCC)([O]C(=O)Cc1ccc(F)cc1)[O]C(=O)Cc1ccc(F)cc1", "Answer Label": "label 1"}
{"Smiles Representation": "CCOC(=O)c1cc(NC(=O)c2cc(NC(=O)c3cc(NC(=O)c4c(-c5ccccc5)noc4C)cn3C)cn2C)cn1C", "Answer Label": "label 0"}
{"Smiles Representation": "CC(C)=CC(=O)OCC(=O)O[C@@H]1C[C@]2(C(C)C)O[C@@]1(C)[C@@H]1CC[C@@H](C)[C@H]1[C@@H]2OC(=O)/C=C/c1ccccc1", "Answer Label": "label 0"}
{"Smiles Representation": "Cc1cc(OCc2n[nH]c(=S)n2/N=C/c2ccc(F)cc2)ccc1Cl", "Answer Label": "label 0"}
{"Smiles Representation": "COc1ccc2c(CCC(c3ccccc3)c3ccccc3)c3[n+](cc2c1OC)CCc1cc2c(cc1-3)OCO2", "Answer Label": "label 1"}
{"Smiles Representation": "O=C1C=CC(=O)c2c1c1c(c3c2C2c4ccccc4C3c3ccccc32)C2c3ccccc3C1c1ccccc12", "Answer Label": "label 0"}
{"Smiles Representation": "Cc1c(NC(=O)c2cc(C(N)=O)nc3cc(F)ccc23)c(C(F)(F)F)nn1Cc1ccc(C#N)cc1", "Answer Label": "label 0"}
